All figures here come from patent US20100080770A1.

Measured pIC50 values are reported for all entries that follow.
# targetDesc: HCV NS3/4A protease complex (Hepatitis C virus genotype 1a, UniProt P27958, C1454S/C1711G)
# Construct: recombinant HCV NS3/4A protease complex (amino acids 1027 to 1711); inferred from the pET21b vector and Ni-NTA purification; made in house; host or cells: Escherichia coli BL21 (DE3)
# Sequence (P27958 1027-1711 C1454S/C1711G, one chain of several): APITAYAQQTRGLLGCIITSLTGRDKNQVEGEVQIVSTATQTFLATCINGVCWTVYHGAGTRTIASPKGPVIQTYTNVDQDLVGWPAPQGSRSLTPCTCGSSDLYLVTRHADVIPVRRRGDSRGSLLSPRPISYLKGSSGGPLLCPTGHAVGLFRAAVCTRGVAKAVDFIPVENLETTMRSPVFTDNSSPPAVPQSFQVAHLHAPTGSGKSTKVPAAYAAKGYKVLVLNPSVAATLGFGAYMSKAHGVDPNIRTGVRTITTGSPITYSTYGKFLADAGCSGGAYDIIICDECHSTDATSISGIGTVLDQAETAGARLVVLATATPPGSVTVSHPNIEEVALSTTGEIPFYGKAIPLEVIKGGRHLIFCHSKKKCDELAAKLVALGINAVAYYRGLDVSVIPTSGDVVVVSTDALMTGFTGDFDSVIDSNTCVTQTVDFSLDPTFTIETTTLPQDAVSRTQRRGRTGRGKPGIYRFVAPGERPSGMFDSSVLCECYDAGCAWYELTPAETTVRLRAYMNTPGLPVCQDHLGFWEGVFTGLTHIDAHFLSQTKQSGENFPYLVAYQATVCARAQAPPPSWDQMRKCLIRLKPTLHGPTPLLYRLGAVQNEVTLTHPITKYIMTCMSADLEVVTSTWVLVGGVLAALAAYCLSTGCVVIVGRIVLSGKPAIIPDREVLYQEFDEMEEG
# assayExplanation: FRET peptide assay to monitor HCV NS3/4A proteolytic activity
# Type: biochemical
# conditionParameters: HCV NS3/4A protease complex; strain not stated; numeric values; read-out: IC50
pIC50: −log10 of the molar value.
measuredQuantity: pIC50

C=C[C@@H]1C[C@]1(NC(=O)[C@@H]1C[C@]2(OC)CN1C(=O)[C@H](C(C)(C)C)NC(=O)OCCCCCc1cc2cc2ccccc12)C(=O)NS(=O)(=O)C1CC1 [Example 25]	6.62
C=C[C@@H]1C[C@]1(NC(=O)[C@@H]1C[C@]2(OC)CN1C(=O)[C@H](C(C)(C)C)NC(=O)OCC/C=C\c1cc3cc2ccc3cc1OC)C(=O)NS(=O)(=O)C1CC1 [Example 1]	7.51
COc1ccc2ccc3cc2c1CCCCCCOC(=O)N[C@@H](C(C)(C)C)C(=O)N1C[C@@]3(OC)C[C@H]1C(=O)N[C@]1(C(=O)NS(=O)(=O)C2CC2)C[C@H]1C1CC1 [Example 35]	6.38
